test: Selectivity index, ratio of IC50 for HFF cells to IC50 for human SKBR3 cells
Assay type: toxicity
details: HFF cells versus SKBR3 cells, read-out: Ratio IC50
assay-endpoint: selectivity ratio
Numbers only.

*Q* Fill blank: measured selectivity ratio of the molecule COC(=O)[C@]1(C)CCC[C@]2(C)c3ccc(C(C)C)c(NC(=O)Cn4cc(-c5cccc(NC(=O)OC(C)(C)C)c5)nn4)c3CC[C@@H]12 is ____.
*A* 5.8

* * *

test: Metabolic stability in mouse liver microsomes assessed as parent compound remaining after 150 mins in presence of NADPH by HPLC analysis
Type: ADME, microsome
details: read-out: Stability
assay-endpoint: remaining at 2.5 h (%)
Answers are plain numbers, in %.

*Q* Fill blank: measured remaining at 2.5 h of the compound COC(=O)[C@]1(C)CCC[C@]2(C)c3ccc(C(C)C)c(NC(=O)Cn4cc(-c5cccc(NC(=O)OC(C)(C)C)c5)nn4)c3CC[C@@H]12 is ____.
*A* 25.7
